// data source = patent US5840684A

system: Streptococcus pyogenes; test: mouse protection, experimentally-induced infection; assay type: in vivo; details: mice infected with Streptococcus pyogenes, two doses
Label key: rule met means ED50 under 0.05 mg/kg/2; rule not met means ED50 of 0.05 mg/kg/2 or more.

>>> group("CNC(CC(C)C)C(=O)NC1C(=O)NC(CC(N)=O)C(=O)NC2C(=O)NC3C(=O)NC(C(=O)NC(C(=O)O)c4cc(O)cc(O)c4-c4cc3ccc4O)C(OC3CC(C)(N)C(O)C(C)O3)c3ccc(c(Cl)c3)Oc3cc2cc(c3OC2OC(CO)C(O)C(O)C2OC2CC(C)(NCc3ccc(Oc4cccc(Cl)c4)c([N+](=O)[O-])c3)C(O)C(C)O2)Oc2ccc(cc2Cl)C1O (stereo not drawn) [Compound 87]")
"rule not met"
>>> group("CNC(CC(C)C)C(=O)NC1C(=O)NC(CC(N)=O)C(=O)NC2C(=O)NC3C(=O)NC(C(=O)NC(C(=O)O)c4cc(O)cc(O)c4-c4cc3ccc4O)C(OC3CC(C)(N)C(O)C(C)O3)c3ccc(c(Cl)c3)Oc3cc2cc(c3OC2OC(CO)C(O)C(O)C2OC2CC(C)(NCc3ccc(OC(F)(F)C(F)F)cc3)C(O)C(C)O2)Oc2ccc(cc2Cl)C1O (stereo not drawn) [Compound 121]")
"rule met"
>>> group("CNC(CC(C)C)C(=O)NC1C(=O)NC(CC(N)=O)C(=O)NC2C(=O)NC3C(=O)NC(C(=O)NC(C(=O)O)c4cc(O)cc(O)c4-c4cc3ccc4O)C(OC3CC(C)(N)C(O)C(C)O3)c3ccc(c(Cl)c3)Oc3cc2cc(c3OC2OC(CO)C(O)C(O)C2OC2CC(C)(NCc3ccc(-c4ccccc4)cc3)C(O)C(C)O2)Oc2ccc(cc2Cl)C1O (stereo not drawn) [Compound 2, p-phenylbenzyl·A82846B]")
"rule met"
>>> group("CNC(CC(C)C)C(=O)NC1C(=O)NC(CC(N)=O)C(=O)NC2C(=O)NC3C(=O)NC(C(=O)NC(C(=O)O)c4cc(O)cc(O)c4-c4cc3ccc4O)C(OC3CC(C)(N)C(O)C(C)O3)c3ccc(c(Cl)c3)Oc3cc2cc(c3OC2OC(CO)C(O)C(O)C2OC2CC(C)(NCc3ccc(Cc4ccccc4)cc3)C(O)C(C)O2)Oc2ccc(cc2Cl)C1O (stereo not drawn) [Compound 50]")
"rule met"
>>> group("CN[C@H](CC(C)C)C(=O)N[C@H]1C(=O)N[C@@H](CC(N)=O)C(=O)N[C@H]2C(=O)N[C@H]3C(=O)N[C@H](C(=O)N[C@H](C(=O)O)c4cc(O)cc(O)c4-c4cc3ccc4O)[C@H](O[C@H]3C[C@](C)(N)[C@@H](O)[C@H](C)O3)c3ccc(c(Cl)c3)Oc3cc2cc(c3O[C@@H]2O[C@H](CO)[C@@H](O)[C@H](O)[C@H]2O[C@H]2C[C@](C)(NCc3ccc(-c4ccc(C)cc4)cc3)[C@@H](O)[C@H](C)O2)Oc2ccc(cc2Cl)[C@H]1O [Compound 97]")
"rule not met"
>>> group("CNC(CC(C)C)C(=O)NC1C(=O)NC(CC(N)=O)C(=O)NC2C(=O)NC3C(=O)NC(C(=O)NC(C(=O)O)c4cc(O)cc(O)c4-c4cc3ccc4O)C(OC3CC(C)(N)C(O)C(C)O3)c3ccc(c(Cl)c3)Oc3cc2cc(c3OC2OC(CO)C(O)C(O)C2OC2CC(C)(NCc3cccc(Oc4ccccc4)c3)C(O)C(C)O2)Oc2ccc(cc2Cl)C1O (stereo not drawn) [Compound 49]")
"rule met"

---

The following compounds are shown together with reported MIC values.
tested on: Escherichia coli EC14; experiment: broth micro-dilution MIC; format: cell-based
measured.attribute: MIC

>>> readout_value("CNC(CC(C)C)C(=O)NC1C(=O)NC(CC(N)=O)C(=O)NC2C(=O)NC3C(=O)NC(C(=O)NC(C(=O)O)c4cc(O)cc(O)c4-c4cc3ccc4O)C(OC3CC(C)(N)C(O)C(C)O3)c3ccc(c(Cl)c3)Oc3cc2cc(c3OC2OC(CO)C(O)C(O)C2OC2CC(C)(NCc3c(C)c(C)c(C)c(C)c3C)C(O)C(C)O2)Oc2ccc(cc2Cl)C1O (stereo not drawn)")
"> 64 µg/mL"
>>> readout_value("CNC(CC(C)C)C(=O)NC1C(=O)NC(CC(N)=O)C(=O)NC2C(=O)NC3C(=O)NC(C(=O)NC(C(=O)O)c4cc(O)cc(O)c4-c4cc3ccc4O)C(OC3CC(C)(NCc4ccc([N+](=O)[O-])cc4)C(O)C(C)O3)c3ccc(c(Cl)c3)Oc3cc2cc(c3OC2OC(CO)C(O)C(O)C2OC2CC(C)(NCc3ccc([N+](=O)[O-])cc3)C(O)C(C)O2)Oc2ccc(cc2Cl)C1O (stereo not drawn)")
"0.5 µg/mL"
>>> readout_value("CC(C)CC(C(=O)NC1C(=O)NC(CC(N)=O)C(=O)NC2C(=O)NC3C(=O)NC(C(=O)NC(C(=O)O)c4cc(O)cc(O)c4-c4cc3ccc4O)C(OC3CC(C)(N)C(O)C(C)O3)c3ccc(c(Cl)c3)Oc3cc2cc(c3OC2OC(CO)C(O)C(O)C2OC2CC(C)(NCc3ccc(-c4ccccc4)cc3)C(O)C(C)O2)Oc2ccc(cc2Cl)C1O)N(C)Cc1ccc(-c2ccccc2)cc1 (stereo not drawn)")
"> 64 µg/mL"
>>> readout_value("CC(C)CC(C(=O)NC1C(=O)NC(CC(N)=O)C(=O)NC2C(=O)NC3C(=O)NC(C(=O)NC(C(=O)O)c4cc(O)cc(O)c4-c4cc3ccc4O)C(OC3CC(C)(NCc4cccc5c([N+](=O)[O-])cccc45)C(O)C(C)O3)c3ccc(c(Cl)c3)Oc3cc2cc(c3OC2OC(CO)C(O)C(O)C2OC2CC(C)(N)C(O)C(C)O2)Oc2ccc(cc2Cl)C1O)N(C)Cc1cccc2c([N+](=O)[O-])cccc12 (stereo not drawn)")
"> 64 µg/mL"
>>> readout_value("CNC(CC(C)C)C(=O)NC1C(=O)NC(CC(N)=O)C(=O)NC2C(=O)NC3C(=O)NC(C(=O)NC(C(=O)O)c4cc(O)cc(O)c4-c4cc3ccc4O)C(OC3CC(C)(N)C(O)C(C)O3)c3ccc(c(Cl)c3)Oc3cc2cc(c3OC2OC(CO)C(O)C(O)C2OC2CC(C)(NCc3ccc(OCc4ccccc4)cc3)C(O)C(C)O2)Oc2ccc(cc2Cl)C1O (stereo not drawn)")
"> 64 µg/mL"
>>> readout_value("CNC(CC(C)C)C(=O)NC1C(=O)NC(CC(N)=O)C(=O)NC2C(=O)NC3C(=O)NC(C(=O)NC(C(=O)O)c4cc(O)cc(O)c4-c4cc3ccc4O)C(OC3CC(C)(NCc4cnc5ccccc5c4)C(O)C(C)O3)c3ccc(c(Cl)c3)Oc3cc2cc(c3OC2OC(CO)C(O)C(O)C2OC2CC(C)(NCc3cnc4ccccc4c3)C(O)C(C)O2)Oc2ccc(cc2Cl)C1O (stereo not drawn)")
"> 64 µg/mL"

---

The following compounds are shown together with reported mean geometric MIC, Vancomycin Resistant Strains values.
system: vancomycin-resistant enterococci; experiment: broth micro-dilution, mean geometric MIC; assay type: cell-based, Enterococcus faecium and Enterococcus faecalis; conditions: enterococci, 24-hour incubation
measured.attribute: mean geometric MIC, Vancomycin Resistant Strains (µg/mL)

>>> readout_value("CNC(CC(C)C)C(=O)NC1C(=O)NC(CC(N)=O)C(=O)NC2C(=O)NC3C(=O)NC(C(=O)NC(C(=O)O)c4cc(O)cc(O)c4-c4cc3ccc4O)C(OC3CC(C)(N)C(O)C(C)O3)c3ccc(c(Cl)c3)Oc3cc2cc(c3OC2OC(CO)C(O)C(O)C2OC2CC(C)(NCc3ccc(O)cc3)C(O)C(C)O2)Oc2ccc(cc2Cl)C1O (stereo not drawn)")
23
>>> readout_value("CNC(CC(C)C)C(=O)NC1C(=O)NC(CC(N)=O)C(=O)NC2C(=O)NC3C(=O)NC(C(=O)NC(C(=O)O)c4cc(O)cc(O)c4-c4cc3ccc4O)C(OC3CC(C)(N)C(O)C(C)O3)c3ccc(c(Cl)c3)Oc3cc2cc(c3OC2OC(CO)C(O)C(O)C2OC2CC(C)(NCc3ccc(OS(=O)(=O)c4c(C)c(C)c(C)c(C)c4C)cc3)C(O)C(C)O2)Oc2ccc(cc2Cl)C1O (stereo not drawn)")
2.0
>>> readout_value("CNC(CC(C)C)C(=O)NC1C(=O)NC(CC(N)=O)C(=O)NC2C(=O)NC3C(=O)NC(C(=O)NC(C(=O)O)c4cc(O)cc(O)c4-c4cc3ccc4O)C(OC3CC(C)(N)C(O)C(C)O3)c3ccc(c(Cl)c3)Oc3cc2cc(c3OC2OC(CO)C(O)C(O)C2OC2CC(C)(NCc3ccc([N+](=O)[O-])cc3)C(O)C(C)O2)Oc2ccc(cc2Cl)C1O (stereo not drawn)")
16
>>> readout_value("CNC(CC(C)C)C(=O)NC1C(=O)NC(CC(N)=O)C(=O)NC2C(=O)NC3C(=O)NC(C(=O)NC(C(=O)O)c4cc(O)cc(O)c4-c4cc3ccc4O)C(OC3CC(C)(N)C(O)C(C)O3)c3ccc(c(Cl)c3)Oc3cc2cc(c3OC2OC(CO)C(O)C(O)C2OC2CC(C)(NCCCCc3ccc(OC)cc3)C(O)C(C)O2)Oc2ccc(cc2Cl)C1O (stereo not drawn)")
3.4
>>> readout_value("CCCCCCCCCCC#CCNC1(C)CC(OC2C(Oc3c4cc5cc3Oc3ccc(cc3Cl)C(OC3CC(C)(N)C(O)C(C)O3)C3NC(=O)C(NC(=O)C5NC(=O)C(CC(N)=O)NC(=O)C(NC(=O)C(CC(C)C)NC)C(O)c5ccc(c(Cl)c5)O4)c4ccc(O)c(c4)-c4c(O)cc(O)cc4C(C(=O)O)NC3=O)OC(CO)C(O)C2O)OC(C)C1O (stereo not drawn)")
6.7
>>> readout_value("CNC(CC(C)C)C(=O)NC1C(=O)NC(CC(N)=O)C(=O)NC2C(=O)NC3C(=O)NC(C(=O)NC(C(=O)O)c4cc(O)cc(O)c4-c4cc3ccc4O)C(OC3CC(C)(N)C(O)C(C)O3)c3ccc(c(Cl)c3)Oc3cc2cc(c3OC2OC(CO)C(O)C(O)C2OC2CC(C)(NCc3ccc(SC)cc3)C(O)C(C)O2)Oc2ccc(cc2Cl)C1O (stereo not drawn)")
0.84
>>> readout_value("CNC(CC(C)C)C(=O)NC1C(=O)NC(CC(N)=O)C(=O)NC2C(=O)NC3C(=O)NC(C(=O)NC(C(=O)O)c4cc(O)cc(O)c4-c4cc3ccc4O)C(OC3CC(C)(N)C(O)C(C)O3)c3ccc(c(Cl)c3)Oc3cc2cc(c3OC2OC(CO)C(O)C(O)C2OC2CC(C)(NCc3c(O)ccc4ccccc34)C(O)C(C)O2)Oc2ccc(cc2Cl)C1O (stereo not drawn)")
13
>>> readout_value("CNC(CC(C)C)C(=O)NC1C(=O)NC(CC(N)=O)C(=O)NC2C(=O)NC3C(=O)NC(C(=O)NC(C(=O)O)c4cc(O)cc(O)c4-c4cc3ccc4O)C(OC3CC(C)(N)C(O)C(C)O3)c3ccc(c(Cl)c3)Oc3cc2cc(c3OC2OC(CO)C(O)C(O)C2OC2CC(C)(NCc3ccc4c(c3O)Cc3ccccc3-4)C(O)C(C)O2)Oc2ccc(cc2Cl)C1O (stereo not drawn)")
4.0
>>> readout_value("CNC(CC(C)C)C(=O)NC1C(=O)NC(CC(N)=O)C(=O)NC2C(=O)NC3C(=O)NC(C(=O)NC(C(=O)O)c4cc(O)cc(O)c4-c4cc3ccc4O)C(OC3CC(C)(N)C(O)C(C)O3)c3ccc(c(Cl)c3)Oc3cc2cc(c3OC2OC(CO)C(O)C(O)C2OC2CC(C)(NCc3ccc(I)s3)C(O)C(C)O2)Oc2ccc(cc2Cl)C1O (stereo not drawn)")
11
>>> readout_value("CC(C)CC(C(=O)NC1C(=O)NC(CC(N)=O)C(=O)NC2C(=O)NC3C(=O)NC(C(=O)NC(C(=O)O)c4cc(O)cc(O)c4-c4cc3ccc4O)C(OC3CC(C)(N)C(O)C(C)O3)c3ccc(c(Cl)c3)Oc3cc2cc(c3OC2OC(CO)C(O)C(O)C2OC2CC(C)(NCc3c4ccccc4cc4ccccc34)C(O)C(C)O2)Oc2ccc(cc2Cl)C1O)N(C)Cc1c2ccccc2cc2ccccc12 (stereo not drawn)")
38
>>> readout_value("CNC(CC(C)C)C(=O)NC1C(=O)NC(CC(N)=O)C(=O)NC2C(=O)NC3C(=O)NC(C(=O)NC(C(=O)O)c4cc(O)cc(O)c4-c4cc3ccc4O)C(OC3CC(C)(N)C(O)C(C)O3)c3ccc(c(Cl)c3)Oc3cc2cc(c3OC2OC(CO)C(O)C(O)C2OC2CC(C)(NCc3cccc(Oc4cccc(C(F)(F)F)c4)c3)C(O)C(C)O2)Oc2ccc(cc2Cl)C1O (stereo not drawn) [Compound 203]")
1.0
>>> readout_value("CC(C)CC(C(=O)NC1C(=O)NC(CC(N)=O)C(=O)NC2C(=O)NC3C(=O)NC(C(=O)NC(C(=O)O)c4cc(O)cc(O)c4-c4cc3ccc4O)C(OC3CC(C)(N)C(O)C(C)O3)c3ccc(c(Cl)c3)Oc3cc2cc(c3OC2OC(CO)C(O)C(O)C2OC2CC(C)(NCc3ccc(-c4ccc(Cl)cc4)cc3)C(O)C(C)O2)Oc2ccc(cc2Cl)C1O)N(C)Cc1ccc(-c2ccc(Cl)cc2)cc1.O=C(O)C(F)(F)F (stereo not drawn)")
4.8
